Reported TGI values are given for each entry in this list.
- Tested on: A549 NSCLC
- test name: NCI tumour cell line growth inhibition, 48 h

Solved cases (8 shown):
Nc1ccccc1OCCCOc1ccccc1N	> 100 µM
O=C(/C=C/c1ccccc1)Oc1cccc(Br)c1	> 100 µM
Cc1c2cccc-2c(OCCOC(=O)n2ccnc2)cc2c1[nH]c1ccccc12	11 µM
COc1cc(/C(=C2/O[C@@H]([C@H]3COC(C)(C)O3)[C@H]3OC(C)(C)O[C@@H]23)c2ccc3c(c2)OCO3)cc(OC)c1OC	> 25 µM
COc1cc(C(=O)O/N=C(\N)Cc2cccc3ccccc23)cc(OC)c1OC	23.8 µM
C=CCOCn1ccc(N)nc1=O	> 100 µM
Cc1cc2oc3c(ccc(=O)n3C)c(=O)c2c(C)c1Cl	> 100 µM
CC(=O)OCCOCNC(=S)N/N=C(\C)c1cccs1	> 100 µM

Observed TGI on A549 NSCLC, entry CN1CCN(c2ccc3nc(-c4[nH]ncc4Nc4ncnc5c4OCCCN5)[nH]c3c2)CC1 , equals 0.116 µM

Observed TGI on A549 NSCLC, entry CCOC(=O)Cn1c(-c2nonc2NC(=O)c2ccccc2F)nc2ccccc21 , equals > 56.7 µM

Observed TGI on A549 NSCLC, entry Fc1ccc([C@@H]2CCNC[C@H]2COc2ccc3c(c2)OCO3)cc1 , equals 29 µM

Observed TGI on A549 NSCLC, entry Oc1ccc(Oc2cnc3cc(Cl)ccc3n2)cc1 , equals > 100 µM

Observed TGI on A549 NSCLC, entry COc1ccc(N2N=NN(C(C)C)/C2=C(/Cl)c2nnnn2-c2ccc(OC)cc2)cc1 , equals 33.6 µM
